tested-system: CDK1 (Homo sapiens)
Sequence (P06493 whole entry): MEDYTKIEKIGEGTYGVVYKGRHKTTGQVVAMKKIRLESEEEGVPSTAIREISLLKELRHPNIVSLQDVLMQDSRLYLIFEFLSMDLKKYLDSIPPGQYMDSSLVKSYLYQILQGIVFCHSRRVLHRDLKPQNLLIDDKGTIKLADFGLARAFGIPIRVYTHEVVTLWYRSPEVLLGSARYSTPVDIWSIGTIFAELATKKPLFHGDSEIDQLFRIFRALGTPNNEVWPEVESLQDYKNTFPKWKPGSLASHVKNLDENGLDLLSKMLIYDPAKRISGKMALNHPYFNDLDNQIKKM
Sequence (P14635 whole entry partner): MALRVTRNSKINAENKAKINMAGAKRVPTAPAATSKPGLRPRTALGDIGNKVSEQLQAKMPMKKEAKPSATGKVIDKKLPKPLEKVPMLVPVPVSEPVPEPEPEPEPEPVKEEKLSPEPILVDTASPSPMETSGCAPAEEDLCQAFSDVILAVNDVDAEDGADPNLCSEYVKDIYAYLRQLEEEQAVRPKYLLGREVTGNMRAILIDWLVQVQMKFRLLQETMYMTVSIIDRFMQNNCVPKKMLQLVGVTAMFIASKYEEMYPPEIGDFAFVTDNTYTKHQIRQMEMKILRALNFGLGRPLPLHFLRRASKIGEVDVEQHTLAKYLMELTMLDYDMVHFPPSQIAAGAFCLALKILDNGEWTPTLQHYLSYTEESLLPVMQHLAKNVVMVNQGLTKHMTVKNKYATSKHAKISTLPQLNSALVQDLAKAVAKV
observable: pIC50
Give only the number. pIC50 is defined as minus log10 of concentration in molar units.

Below, 3 compounds whose answers are already recorded.
compound="CCNCc1cncc(C=Cc2c[nH]nc2-c2nc3ccc(OC)cc3[nH]2)c1 [Cpd 1]" reading=8.34
compound="CCNC(=O)c1cncc(C=Cc2c[nH]nc2-c2nc3ccc(OC)cc3[nH]2)c1 [Cpd 11]" reading=6.96
compound="COC(=O)c1cncc(C=Cc2c[nH]nc2-c2nc3ccc(OC)cc3[nH]2)c1 [Cpd 9]" reading=6.05

// next item, pIC50 requested
Query: Item COc1ccc2nc(-c3n[nH]cc3C=Cc3cnccc3C)[nH]c2c1 [Cpd 5] with CDK1 (Homo sapiens) - pIC50?
Reply: 6.80

* * *

Tested on: HCT-116 colon carcinoma
assay-overview: Cell proliferation inhibition assay (14C-thymidine incorporation), HCT-116
Format: cell-based
particulars: Homo sapiens, HCT-116 cells
Protocol: The ability of a test compound to inhibit unregulated cell proliferation may be determined by measuring incorporation of ^14C-labelled thymidine into newly synthesized DNA within cell lines derived from carcinomas originating from several tissues. Accordingly, the anti-proliferative effect of a compound on cells with a variety of phenotypes may be determined. […] The carcinoma cells are trypsinized and counted. […] A maximum and minimum signal for the assay was determined on each plate. […]
observable: pIC50
pIC50 is defined as minus the log10 of a concentration measured in mol/L.

Query: Data request, read-out pIC50, for `COc1cncc(C=Cc2c[nH]nc2-c2nc3ccc(OC)cc3[nH]2)c1`
Reply: 6.13

Query: Which pIC50 value is on record for `COc1ccc2nc(-c3n[nH]cc3C=Cc3cncc4ccccc34)[nH]c2c1` ?
Reply: 5.57

Query: Please give the measured pIC50 for this molecule: `CCNCc1cncc(C=Cc2c[nH]nc2-c2nc3ccc(OC)cc3[nH]2)c1`
Reply: 6.73

Query: pIC50; subject: `CN1CCN(c2ccc3nc(-c4n[nH]cc4C=Cc4cccnc4)[nH]c3c2)CC1`
Reply: 6.71
